System: BJ-TERT RAS-dependent fibroblast cytotoxicity, fluorescence
measurement_notes: killing of RAS-driven BJ-TERT cells – cell-based, fluorescence viability readout, dose response (AID 2635)
Results filed as inconclusive are left out. Activity calls are given as the source filed them. How the calls were made is not given here.
Classes used: active, inactive

COc1ccc(Cc2nc(-c3ccc(NC(=O)c4cccnc4)cc3)no2)cc1: inactive
COc1ccc(C(C(=O)NC2CCCCC2)N(C(=O)CCl)c2cccc(Cl)c2)cc1 (stereo not drawn): inactive
C=CCOc1ccccc1CN(C(=O)CCl)c1ccc2c(c1)OCO2: inactive
CC[C@@]1(O)C(=O)OCc2c1cc1n(c2=O)Cc2cc3c(CN(C)C)c(O)ccc3nc2-1: active
COc1cccc(/C=C2\SC(=S)N(CCCC(=O)N(CCO)c3ccccc3)C2=O)c1: inactive
O=C(Cc1ccc([N+](=O)[O-])cc1)N/N=C/c1ccc([N+](=O)[O-])o1: inactive
COc1cccc(N(C(=O)CCl)C(C(=O)NCCc2ccccc2)c2cccs2)c1 (stereo not drawn): active
COc1ccc(OC)c(Nc2nc(N)nc(CCl)n2)c1: inactive
Cc1ccc(/C=C2\SC(=S)N(CCCC(=O)N3CCOCC3)C2=O)cc1: inactive
COc1ccc(N(C(=O)CCl)C(C(=O)NCCc2ccccc2)c2cccs2)cc1 (stereo not drawn): active
O=C(NCCOc1cccnc1)c1ccc(OC2CCN(Cc3ccccn3)CC2)cc1: active
O=C(NCc1cccnc1)c1ccc(-c2cc3ccccc3oc2=O)cc1: inactive
CCN1/C(=C\C=C\C2=[N+](CC)c3ccccc3C2(C)C)C(C)(C)c2ccccc21: active
O=[N+]([O-])c1ccc(N=Nc2ncc[nH]2)cc1: inactive
Cc1cccc(Nc2nc(N)nc(CCl)n2)c1C: inactive
COC(=O)C[C@](O)(CCCC(C)(C)O)C(=O)O[C@@H]1C(OC)=C[C@]23CCCN2CCc2cc4c(cc2[C@H]13)OCO4: active
COc1ccc(S(=O)(=O)N2CCOCC2)cc1NC(=O)CCNC(=O)c1ccc(Br)cc1: inactive
C/C(=N\Nc1ncc(Cl)cc1Cl)c1ccccn1: active
O=C(N/N=C/c1cccnc1)c1ccc(NC(=O)C(c2ccccc2)c2ccccc2)cc1: inactive
CC[C@H]1CN2CCc3cc(OC)c(OC)cc3[C@@H]2C[C@@H]1C[C@H]1NCCc2cc(OC)c(OC)cc21: active
COc1ccc(C(C(=O)NC2CCCCC2)N(C(=O)CCl)c2ccc(C)cc2)cc1 (stereo not drawn): inactive
Cc1ccc(N(C(=O)CCl)C(C(=O)NC2CCCCC2)c2cccnc2)cc1C (stereo not drawn): active
Oc1ccccc1N=Nc1nc(-c2ccccc2)c(-c2ccccc2)[nH]1: active
